Tested on: HIV-1 (IIIB isolate)
protocol-text: Anti-HIV activity in H9 lymphocytes (p24 antigen ELISA)
Type: cell-based
study-conditions: H-9 lymphocytes; ratio of IC50 to EC50
experimental-readout: Therapeutic Index (TI = IC50/EC50)

Previously resolved entries follow.
Cc1cc(=O)oc2c3c(c(C(Br)Br)cc12)OC(C)(C)[C@H](OC(=O)[C@@]12CCC(C)(C(=O)O1)C2(C)C)[C@@H]3OC(=O)[C@@]12CCC(C)(C(=O)O1)C2(C)C (relative stereo) [Compound 5]; 81.8
CC1(C)Oc2ccc3cc(C(Br)Br)c(=O)oc3c2[C@@H](OC(=O)[C@@]23CCC(C)(C(=O)O2)C3(C)C)[C@H]1OC(=O)[C@@]12CCC(C)(C(=O)O1)C2(C)C (relative stereo) [Compound 2]; 26,890
Cc1cn([C@H]2C[C@H](N=[N+]=[N-])[C@@H](CO)O2)c(=O)[nH]c1=O [AZT, reference compound]; 41,667
Cc1cc(=O)oc2c3c(c(CN)cc12)OC(C)(C)[C@H](OC(=O)[C@@]12CC[C@@](C)(C(=O)O1)C2(C)C)[C@@H]3OC(=O)[C@@]12CC[C@@](C)(C(=O)O1)C2(C)C (relative stereo) [Compound 15]; 24,100
Cc1c(CO)c(=O)oc2c3c(ccc12)OC(C)(C)[C@H](OC(=O)[C@@]12CCC(C)(C(=O)O1)C2(C)C)[C@@H]3OC(=O)[C@@]12CCC(C)(C(=O)O1)C2(C)C (relative stereo) [Compound 11]; 1,320
Cc1cc(=O)oc2c3c(c(CBr)cc12)OC(C)(C)[C@H](OC(=O)[C@@]12CC[C@@](C)(C(=O)O1)C2(C)C)[C@@H]3OC(=O)[C@@]12CC[C@@](C)(C(=O)O1)C2(C)C (relative stereo) [Compound 6]; 1,000

Asked: # Therapeutic Index (TI = IC50/EC50) lookup, item CC(=O)OCc1cc2ccc3c(c2oc1=O)[C@@H](OC(=O)[C@@]12CCC(C)(C(=O)O1)C2(C)C)[C@@H](OC(=O)[C@@]12CCC(C)(C(=O)O1)C2(C)C)C(C)(C)O3 (relative stereo) [Compound 7]
Given back: 3,243
